system: ovarian OVCAR-3; assay: COMPARE screening (NCI human cancer cell line screen), cytotoxicity GI50; type: cell-based
experimental-readout: GI50

COc1ccc2c(c1)C(=O)c1c-2n(CCCNCCO)c(=O)c2ccccc12.Cl = 417 nM

Exercise: Form field: GI50 recorded for O=C1c2ccccc2-c2c1c1ccccc1c(=O)n2CCNCCO [Compound S-2, oracin, reference compound] with ovarian OVCAR-3 (enter value)
Solution: 3850 nM

Exercise: Consider next the molecule Cl.O=C1c2ccccc2-c2c1c1ccc([N+](=O)[O-])cc1c(=O)n2CCCNCCO in the same way.
Solution: 1350 nM

Exercise: Consider next the molecule COc1ccc2c(c1)C(=O)c1c-2n(CCCN(C)C)c(=O)c2cc([N+](=O)[O-])ccc12 in the same way.
Solution: 28 nM

----------
Listed next: entries and their corresponding GI50.
Test system: lung HOP-62
Assay: COMPARE screening (NCI human cancer cell line screen), cytotoxicity GI50
Assay type: cell-based
Protocol: Selected compounds were tested for antiproliferative activity in the National Cancer Institute's developmental therapeutics assay 60 cell line screen (NCI60). The cells were incubated with the tested compounds at 100, 10, 1, 0.1, and 0.01 μM concentrations for 48 h before treatment with sulforhodamine B dye. Optical densities were recorded, and their ratios relative to that of the control were plotted as percentage growth against the log 10 of the tested compound concentrations.
Write the answer as a number in nM, unit excluded.

Completed entries (count: 3):
O=C(O)C(F)(F)F.O=C(O)C(F)(F)F.O=C1c2ccccc2-c2c1c1ccccc1c(=O)n2CCNCCNCCn1c2c(c3ccccc3c1=O)C(=O)c1ccccc1-2 [Compound 14c] = 32
COc1cc2c3c(n(CCN4CCOCC4)c(=O)c2cc1OC)-c1ccccc1C3=O [Compound 5h] = 89100
Cl.O=C1c2ccccc2-c2c1c1ccccc1c(=O)n2CCCNCCO [Compound 5bo] = 195

Now consider the entry below.
Exercise: Form field: GI50 recorded for O=C(O)C(F)(F)F.O=C(O)C(F)(F)F.O=C(O)C(F)(F)F.O=C1c2ccccc2-c2c1c1ccccc1c(=O)n2CCNCCNCCNCCn1c2c(c3ccccc3c1=O)C(=O)c1ccccc1-2 [Compound 14i] with lung HOP-62 (enter value)
Solution: 48

----------
system: renal SN12C; assay: COMPARE screening (NCI human cancer cell line screen), cytotoxicity GI50; assay type: cell-based
experimental-readout: GI50

Completed entries (count: 3):
COc1ccc2c(c1)C(=O)c1c-2n(CCCN=[N+]=[N-])c(=O)c2ccccc12 = > 100000 nM
COc1ccc2c(c1)C(=O)c1c-2n(CCCn2ccnc2)c(=O)c2cc([N+](=O)[O-])ccc12 = < 10 nM
COc1cc2c3c(n(CCCn4ccnc4)c(=O)c2cc1OC)-c1cc2c(cc1C3=O)OCO2.Cl [Compound 5l, Hydrochloride] = < 10 nM

Now consider the entry below.
Exercise: Given the molecule O=C(O)C(F)(F)F.O=C(O)C(F)(F)F.O=C1c2ccccc2-c2c1c1ccccc1c(=O)n2CCCNCCCCNCCCn1c2c(c3ccccc3c1=O)C(=O)c1ccccc1-2 [Compound 14h] , what is its reported GI50?
Solution: < 5 nM

----------
Listed next: entries and their corresponding log10 of GI50.
system: ovarian OVCAR-3; test: COMPARE screening (NCI human cancer cell line screen), cytotoxicity GI50; type: cell-based
In our notation, the value equals log10 of GI50 in nM.

Completed entries (count: 5):
COc1cc2c3c(n(CCCN4CCN(C)CC4)c(=O)c2cc1OC)-c1cc2c(cc1C3=O)OCO2 = 4.18
COc1ccc2c(c1)C(=O)c1c-2n(CCCN)c(=O)c2ccccc12.Cl = 1.45
O=C1c2ccccc2-c2c1c1ccccc1c(=O)n2CCCNCCCn1c2c(c3ccccc3c1=O)C(=O)c1ccccc1-2 [Compound 12c] = 3.47
O=C1c2ccccc2-c2c1c1ccc([N+](=O)[O-])cc1c(=O)n2CCCn1ccnc1 = 2.94
COc1ccc2c(c1)C(=O)c1c-2n(CCCn2ccnc2)c(=O)c2ccccc12 = 3.22

Now consider the entry below.
Exercise: Form field: log10 of GI50 recorded for COc1ccc2c(c1)C(=O)c1c-2n(CCCN(C)C)c(=O)c2ccccc12 with ovarian OVCAR-3 (enter value)
Solution: 2.63

The measured values listed here are drawn from patent US9796753B2.
